These measurements were taken from patent US5084468A.

- Test system: HeLa S3 cells
- method_notes: Growth inhibition of HeLa S3 cells (neutral red, 72 hours)
- Type: cell-based
- assay_setup: Homo sapiens; HeLa S3 cells, 72 hours, neutral red staining; read-out: IC50 (drug concentration which inhibited growth of HeLa S3 cells by 50%)
pIC50: −log10 of the molar value.
Condition met means recorded pIC50 is 9 or above; Condition not met means it is below 9.

Previously resolved entries follow.
QUERY: Tell me whether pIC50 is at least 9 here: COC(=O)C1(C)Nc2c(O)cc3c(c2C1=O)C(CBr)CN3C(=O)C1Cc2ccccc2N1 (centres unmarked)
RESULT: Condition not met

QUERY: Is pIC50 for COC(=O)C1(C)NC2=C(C1=O)C13CC1CN(C(=O)c1cc4cc(OC)c(OC)cc4[nH]1)C3=CC2=O (centres unmarked) at or above 9?
RESULT: Condition met

QUERY: Determine whether this compound has pIC50 no lower than 9: COC(=O)C1(C)Nc2c(O)cc3c(c2C1=O)C(CI)CN3C(=O)c1cc2cc(OC)c(OC)c(OC)c2[nH]1 (centres unmarked)
RESULT: Condition met

---
QUERY: hey, is pIC50 for this one >= 9? COC(=O)C1(C)NC2=C(C1=O)C13CC1CN(C(=O)/C=C/c1ccccc1)C3=CC2=O (centres unmarked)
RESULT: Condition not met

QUERY: Hi team, for COC(=O)C1(C)Nc2c(O)cc3c(c2C1=O)C(CBr)CN3C(=O)Nc1ccccc1 (centres unmarked) , is the recorded pIC50 at or above 9?
RESULT: Condition not met
